I'd be grateful if you could share measured composite z-score for these entries.
target: Streptavidin (Streptomyces avidinii); experiment: streptavidin binders on small-molecule microarray, primary screen, artefact control for SMM compound annotation, biophysical, 635/667 nm fluorescence (AID 1147); settings: streptavidin binding, higher = more signal;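 note: signal reflects streptavidin binding to arrayed compounds as a control protein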
In your answer, state the number alone without any accompanying words.

Given "C/C=C/[C@@H](CCn1cc(CCO[Si](C(C)C)(C(C)C)C(C)C)nn1)[Si](C)(C)c1ccc(OC)cc1" , state its recorded composite z-score.
-1.27

Proceed to CC1CC/C=C\[C@H]2OC34C=CCN(C(C)C)C(=O)[C@H]3N(C(CO)C(C)C)C(=O)[C@@H]4C2C(=O)O1 (some centres not stated)
-1.28

Same again, this time with CC(C)CCC[C@@H](C)[C@H]1CC[C@@]2(C)C3=C(CC[C@]12C)[C@@]1(C)CC[C@H](OC(=O)CCl)C(C)(C)C1CC3 (some centres not stated)
0.0285

Input "O=C1O[C@H](c2ccccc2)[C@H](c2ccccc2)N2[C@H]1[C@@H](C(=O)Nc1nc3ccccc3s1)[C@]1(C(=O)Nc3ccc(C#CCCO)cc31)[C@H]2c1ccccc1OCCO"
1.11

Would you mind doing "COc1ccc([Si](C)(C)[C@H]2[C@H](CC(=O)N(CCO)Cc3ccccc3)O[C@@]3(C(=O)N(Cc4ccc(N5CCOC5=O)cc4)c4ccccc43)[C@@H]2C)cc1" as well?
0.295

Request: "CC(C)(C)OC(=O)CC[C@@]1(C(=O)N2CCOCC2)N=C(c2ccc(OCCCO)cc2)O[C@@H]1c1ccccc1"
0.3

Now consider C=CCC(OC(C)=O)[C@@H]1[C@@H](N(Cc2cc3ccccc3o2)C(=O)c2ccc(-c3ccccc3)cc2)c2cc(OCCCO)ccc2N1C(=O)c1ccc(-c2ccccc2)cc1 (some centres not stated) and answer again.
-0.0123

What about this molecule? "COCCOC(=O)N1C(=O)[C@@]2(c3ccccc31)[C@H](C(=O)Nc1nc3ccccc3s1)[C@H]1C(=O)O[C@H](c3ccccc3)[C@H](c3ccccc3)N1[C@@H]2c1ccc(O)cc1"
0.511

// query: "CCOC(=O)C[C@H]1[C@H](OC(=O)c2ccc(C(=O)c3ccccc3)cc2)[C@@H](NC(=O)Cc2ccc(OC)cc2)c2cc(OCCCO)ccc2N1C(=O)Cc1ccc(OC)cc1"
0.598

Next record, please: "COc1c(C)cc(-c2cc3c(c(CCc4ccccc4)n2)[Si](C(C)C)(C(C)C)OC3)cc1C"
-0.0683

What do you have for "CC(C)[Si](C#C[Si](C(C)C)(C(C)C)C(C)C)(O[C@H](C)c1cn([C@H](C)c2ccccc2)nn1)C(C)C" ?
0.434

Another: "COCCCNC(=O)[C@@]1(C)c2ccccc2C(=O)N(Cc2cc(F)cc(C(F)(F)F)c2)[C@H]1c1ccc(CO)cc1"
-0.624

// data source = PubChem BioAssay
